System: Escherichia coli TOP10
Experiment: shrunken log2 fold change of peptide-encoding DNA abundance (4.5 h post-induction vs induction); higher = less antimicrobial activity (less host growth inhibition)
Details: time post-induction: 4.5 h; library: site-saturation at positions 5, 18, 19, 20
measured.property: shrunken log2 fold change
Answer using only a numeral; do not append any unit.

RRIRIRPPRLPRPRPRPPQYPRP: -0.226

Reported shrunken log2 fold change of RRIRVRPPRLPRPRPRPHDVPRP : -0.116

Reported shrunken log2 fold change of RRIRLRPPRLPRPRPRPEKQPRP : 0.0884

Reported shrunken log2 fold change of RRIRRRPPRLPRPRPRPMAFPRP : 0.024

Reported shrunken log2 fold change of RRIRERPPRLPRPRPRPIEFPRP : 0.101

Reported shrunken log2 fold change of RRIRCRPPRLPRPRPRPDMQPRP : -0.672

----------
Tested on: Escherichia coli TOP10
Assay: shrunken log2 fold change of peptide-encoding DNA abundance (4.5 h post-induction vs induction); higher = less antimicrobial activity (less host growth inhibition)
Conditions: time post-induction: 4.5 h; library: site-saturation at positions 5, 18, 19, 20
measured.property: shrunken log2 fold change
Answer using only a numeral; do not append any unit.

RRIRWRPPRLPRPRPRPIQVPRP: -0.0332
RRIRMRPPRLPRPRPRPGCVPRP: 0.967

Turning to the following sequence.
Reported shrunken log2 fold change of RRIRRRPPRLPRPRPRPTHFPRP : 1.01

----------
A collection of sequences and their measured shrunken log2 fold change
System: Escherichia coli TOP10
Experiment: shrunken log2 fold change of peptide-encoding DNA abundance (4.5 h post-induction vs induction); higher = less antimicrobial activity (less host growth inhibition)
Settings: time post-induction: 4.5 h; library: site-saturation at positions 5, 18, 19, 20

Here is how some sequences turned out for shrunken log2 fold change.
RRIRNRPPRLPRPRPRPFICPRP: -0.38
RRIRERPPRLPRPRPRPFWVPRP: 0.0389
RRIRHRPPRLPRPRPRPLQNPRP: -0.00367

Reported shrunken log2 fold change of RRIRDRPPRLPRPRPRPVFKPRP : -0.0946

Reported shrunken log2 fold change of RRIRERPPRLPRPRPRPDNNPRP : -0.237

Reported shrunken log2 fold change of RRIRERPPRLPRPRPRPSTVPRP : -0.0579

Reported shrunken log2 fold change of RRIRQRPPRLPRPRPRPTWKPRP : 0.00778

Reported shrunken log2 fold change of RRIRLRPPRLPRPRPRPRQIPRP : 0.211

----------
Test system: Escherichia coli TOP10;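 note: peptides expressed intracellularly from a pBAD plasmid library in pooled LB shake-flask culture, induced with 0.3% L-arabinose, DNA abundance read by NGS, three biological replicates, DESeq2 with apeglm shrinkage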
Assay: shrunken log2 fold change of peptide-encoding DNA abundance (4.5 h post-induction vs induction); higher = less antimicrobial activity (less host growth inhibition)
Conditions: time post-induction: 4.5 h; library: site-saturation at positions 5, 18, 19, 20
Each entry belongs to exactly one class, chosen by where its shrunken log2 fold change falls: group 1: < -0.08; group 2: ≥ -0.08 and < 0.3; group 3: ≥ 0.3

Past entries and their recorded results:
RRIRPRPPRLPRPRPRPPKHPRP: group 3
RRIRFRPPRLPRPRPRPYYDPRP: group 2
RRIRQRPPRLPRPRPRPQREPRP: group 2
RRIRCRPPRLPRPRPRPNAWPRP: group 1
RRIRKRPPRLPRPRPRPFLQPRP: group 2

Bin? RRIRCRPPRLPRPRPRPPNAPRP
group 2
